assay: Potency to displace [3H]IMI binding to Nicotinic acetylcholine receptor from Drosophila head membranes; design: species or system Drosophila melanogaster
pKi: −log10 of the molar value.
Binary call on pKi: yes (1) from 6 upward, no (0) beneath that.

Is pKi at least 6? Consider Clc1ccc(C2CC3CCC2N3)cn1 (stereo not given) [EPIBATIDINE]
yes (1)

Is pKi at least 6? Consider [N-]=[N+]=Nc1cc(CN2CCN/C2=N\[N+](=O)[O-])cnc1Cl
yes (1)

Is pKi at least 6? Consider [N-]=[N+]=Nc1ccncc1Cn1ccsc1=N
no (0)

Is pKi at least 6? Consider [N-]=[N+]=Nc1cc(Cn2ccs/c2=N\[N+](=O)[O-])cnc1Cl
yes (1)

Is pKi at least 6? Consider O=[N+]([O-])/N=c1\sccn1Cc1ccc(Cl)nc1
yes (1)

Is pKi at least 6? Consider [N-]=[N+]=Nc1cc(Cl)ncc1Cn1ccsc1=N
no (0)

Is pKi at least 6? Consider [N-]=[N+]=Nc1cncc(Cn2ccsc2=N)c1
no (0)

Is pKi at least 6? Consider [N-]=[N+]=Nc1cc(Cl)ncc1Cn1ccnc1N[N+](=O)[O-]
yes (1)

Is pKi at least 6? Consider N#C/N=c1\sccn1Cc1ccc(Cl)nc1
yes (1)

Is pKi at least 6? Consider O=[N+]([O-])Nc1nccn1Cc1ccc(Cl)nc1 [DEHYDROIMIDACLOPRID]
yes (1)

Is pKi at least 6? Consider [N-]=[N+]=Nc1cc(Cn2ccnc2N[N+](=O)[O-])cnc1Cl
yes (1)

Is pKi at least 6? Consider O=[N+]([O-])/N=C1\NCCN1Cc1ccc(Cl)nc1
yes (1)

Is pKi at least 6? Consider [N-]=[N+]=Nc1cc(CN2CCN=C2N)cnc1Cl
no (0)

Is pKi at least 6? Consider N#C/N=c1\sccn1Cc1cnc(Cl)c(N=[N+]=[N-])c1
yes (1)

Is pKi at least 6? Consider [N-]=[N+]=Nc1ccncc1Cn1ccnc1N[N+](=O)[O-]
no (0)

Is pKi at least 6? Consider [N-]=[N+]=Nc1cncc(Cn2ccnc2N[N+](=O)[O-])c1
yes (1)

Is pKi at least 6? Consider N=c1sccn1Cc1ccc(Cl)nc1
yes (1)

Is pKi at least 6? Consider CN1CCC[C@H]1c1cccnc1
no (0)
